Measured growth inhibition, listed per entry.
experiment description: NCI Yeast Anticancer Drug Screen. Data for the mec2-1 strain (AID 157)
measurement setup: S. cerevisiae mec2-1 strain, at 50.0 µM, stronger effect = higher value
The panel holds about 79,000 compounds, 15% with a hit somewhere; the sample as a whole holds those more often.

- compound: "O=c1ccc(N=Nc2ccccc2)ccc1O"
  growth inhibition, %: 98.7
- compound: "On1cnc(=S)c2[nH]cnc21"
  growth inhibition, %: 1.85
- compound: "O=C(O)c1[nH]c(=O)c2ccccc2c1Nc1ccccc1"
  growth inhibition, %: -1.2
- compound: "CN(C)c1ccc(N=Nc2ccccn2)cc1"
  growth inhibition, %: 82.9
- compound: "NC(=O)N1c2ccccc2C=Cc2ccccc21"
  growth inhibition, %: -3.4
- compound: "COc1cc(N(C)C)ccc1/C=C\\c1ccnc2ccccc12"
  growth inhibition, %: -8.75
- compound: "O=Cc1coc2ccccc2c1=O"
  growth inhibition, %: 35.2
- compound: "C(=N/NC1=NCCN1)/c1c2ccccc2c(/C=N\\NC2=NCCN2)c2ccccc12"
  growth inhibition, %: 83.6
- compound: "COc1ccc(N2C(=O)CC(Cl)C2=O)cc1 (configuration not stated)"
  growth inhibition, %: 99.5
- compound: "O/N=C/C1c2ccccc2-c2ccccc21"
  growth inhibition, %: 99
- compound: "N#C/C(=C/N1C(=O)/C(=C/c2ccc([N+](=O)[O-])cc2)SC1=S)c1nc2ccccc2s1"
  growth inhibition, %: 81.7
- compound: "CCOC(=O)C(NC(=O)CC)(N1CCN(c2cc3c(cc2F)c(=O)c(C(=O)O)cn3C2CC2)CC1)C(F)(F)F (configuration not stated)"
  growth inhibition, %: 84.1

---

Measured growth inhibition, listed per entry.
experiment description: NCI Yeast Anticancer Drug Screen. Data for the CLN2oe strain (AID 163);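 also: 0% = growth of vehicle-only control cultures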
measurement setup: S. cerevisiae CLN2oe strain, at 100.0 µM, stronger effect = higher value
Description: Growth inhibition of yeast strains with defined genetic alterations is measured as a screen for potential anti-cancer activity. Selected strains with alterations in DNA damage repair or cell cycle control were exposed to compounds and growth inhibition was measured relative to vehicle treated controls. The strain used in this assay is CLN2oe
Compounds without any hit were thinned out: in the full panel of roughly 79,000, 15% have a hit.

- compound: "OCCN(CCO)c1ccc2c(c1)Cc1ccccc1-2"
  growth inhibition [%]: -7
- compound: "CCCCCCSc1nc(COC(=O)NC)c(COC(=O)NC)n1C"
  growth inhibition [%]: 97
- compound: "CCOP1(=O)C=C(Sc2ccc([N+](=O)[O-])cc2[N+](=O)[O-])C(C)(C)O1 (centres undefined)"
  growth inhibition [%]: 37
- compound: "CC(C)(C)[OH+][O-].[O-]c1ccc(Cl)cc1C=Nc1ccc(Cl)cc1[O-].[O]=[V]"
  growth inhibition [%]: 26
- compound: "CC(=O)C1(O)Cc2c(O)c3c(c(O)c2C(OC2CC(N)C(O)C(C)O2)C1)C(=O)c1ccccc1C3=O (centres undefined)"
  growth inhibition [%]: 99
- compound: "S=c1cn[nH]c2ccc(Br)cc12"
  growth inhibition [%]: 76
- compound: "Cc1cccc2c1N=C(C(F)(F)F)CC2=O"
  growth inhibition [%]: 43
- compound: "C=C(C)[C@@H]1CCc2c(O)c(O)c(=O)cc(C)c2C1"
  growth inhibition [%]: 99
- compound: "O=C(NC(=S)Nc1ccccn1)c1ccccc1"
  growth inhibition [%]: -15
- compound: "C/C(=N\\NC(=S)NC1CCCC1)c1ccccn1"
  growth inhibition [%]: 99
- compound: "CC(=O)Oc1ccc(N2C(=O)C3c4[nH]c5ccccc5c4C4CCC(C(C)(C)C)CC4C3C2=O)cc1 (centres undefined)"
  growth inhibition [%]: 97
- compound: "O=C1CSC(=S)N1Cc1ccc(Cl)cc1Cl"
  growth inhibition [%]: 98
- compound: "Nc1ccc(S(=O)(=O)Nc2ccc(Nc3c4ccccc4nc4ccccc34)cc2)cc1"
  growth inhibition [%]: 33
- compound: "O=[N+]([O-])c1cc(S(=O)(=O)Nc2ccccc2)ccc1Cl"
  growth inhibition [%]: 98
- compound: "COc1cccc(C(c2cc3c(cc2O)OCO3)N2CCOCC2)c1OC (centres undefined)"
  growth inhibition [%]: 19
- compound: "S=c1[nH]nc(-c2ccc(Cl)cc2)s1"
  growth inhibition [%]: 95
- compound: "O=S(=O)(N/N=C/c1cccc(Cl)c1)c1ccccc1"
  growth inhibition [%]: 82
- compound: "COc1ccc(/C=C(\\NC(=O)c2ccccc2)C(=O)NN(C)c2ccnc3cc(Cl)ccc23)cc1OC"
  growth inhibition [%]: 58
- compound: "Nc1cc(S(N)(=O)=O)ccc1SSc1ccc(S(N)(=O)=O)cc1N"
  growth inhibition [%]: 49
- compound: "Cc1ccc(I)cc1N=C=S"
  growth inhibition [%]: 98
- compound: "CC(=O)C1=C(C)O/C(=C/c2cccc(Cl)c2)C1=O"
  growth inhibition [%]: 98
- compound: "CN(C)c1ccc(N=Nc2ccccn2)cc1"
  growth inhibition [%]: 88
- compound: "N#CSC1CCCCNC1=O (centres undefined)"
  growth inhibition [%]: 96
- compound: "CC(C)(C)c1ccc(O)c(C(c2ccc([N+](=O)[O-])cc2)c2cc(C(C)(C)C)ccc2O)c1"
  growth inhibition [%]: 91
- compound: "COc1cc2c(cc1C[N+](C)(C)CSc1ccccc1)-c1ccccc1CC2"
  growth inhibition [%]: 99
- compound: "COc1cc(/C=C/c2sc3ccccc3[n+]2C)ccc1N(C)C"
  growth inhibition [%]: 96
- compound: "O=C(O)c1cccc2cccc(-c3c4ccc(=O)cc-4oc4cc(O)ccc34)c12"
  growth inhibition [%]: 90
- compound: "Cn1ncc2cc3c(Nc4ccc(Cl)cc4)cccc3nc21"
  growth inhibition [%]: -6
- compound: "CC(=O)O[C@H]1C(=O)[C@@]2(C)[C@H]([C@H](OC(=O)c3ccccc3)[C@]3(O)C[C@H](OC(=O)[C@H](O)[C@@H](NC(=O)c4ccccc4)c4ccccc4)C(C)=C1C3(C)C)[C@]1(OC(C)=O)CO[C@@H]1C[C@@H]2O"
  growth inhibition [%]: -13
- compound: "Cc1cc(N=C2C=CC(=[N+](C)C)C=C2)c(N)cc1N"
  growth inhibition [%]: 67
- compound: "COc1ccc(/C(C#N)=C/c2ccc(OC)c(OC)c2)cc1"
  growth inhibition [%]: -5
- compound: "O=Nn1c2ccccc2c2cc([N+](=O)[O-])ccc21"
  growth inhibition [%]: 94
- compound: "C/C(=N\\NC(=S)NNC(=S)N(C)c1ccccc1)c1ccccn1"
  growth inhibition [%]: 79
- compound: "Nc1nc(F)nc2c1ncn2C1OC(COP(=O)(O)O)C(O)C1O (centres undefined)"
  growth inhibition [%]: -2
- compound: "O=C(Nc1cccc(C(F)(F)F)c1)Oc1ccc(Cl)cc1C(=O)c1ccccc1"
  growth inhibition [%]: 97
- compound: "CC1=CC2C(C(C)C)CC1C1C(=O)OC(=O)C21 (centres undefined)"
  growth inhibition [%]: 16
- compound: "CCCc1[nH]nc(C(N)=O)c1N=NN(C)C"
  growth inhibition [%]: 5
- compound: "Cc1cc(C(C)(C)CC(C)(C)C)cc(O)c1O"
  growth inhibition [%]: 98
- compound: "CCCCCCCCCCCCCCCCCCNC(=S)/N=C\\C1=C(O)c2ccccc2C1=O"
  growth inhibition [%]: -4
- compound: "COc1cc([C@@H]2c3cc4c(cc3[C@@H](OC3OC5COC(C)OC5C(O)C3O)[C@H]3COC(=O)[C@H]23)OCO4)cc(OC)c1O (some centres undefined)"
  growth inhibition [%]: -6
- compound: "O=S1(=O)c2ccccc2N=C(c2ccccc2Cl)CC1c1ccc(F)cc1 (centres undefined)"
  growth inhibition [%]: -13
- compound: "O=[N+]([O-])/C(C(Cl)=C(Cl)Cl)=C1/OCCS1"
  growth inhibition [%]: 99
- compound: "CCOc1ccc(C(=O)CCC(=O)O)c(C)c1"
  growth inhibition [%]: 20
- compound: "O=c1ccc(N=Nc2ccccc2)ccc1O"
  growth inhibition [%]: 97

---

experiment description: NCI Yeast Anticancer Drug Screen. Data for the rad52 strain (AID 147);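 also: 0% = growth of vehicle-treated control cultures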
measurement setup: S. cerevisiae rad52 mutant growth inhibition; at 11.0 µM; stronger effect = higher value
The panel holds about 79,000 compounds, 15% with a hit somewhere; the sample as a whole holds those more often.

- compound: "N#Cc1sc2c(c1OC(=O)c1ccco1)c(=O)n(-c1ccccc1)c(=S)n2-c1ccccc1"
  growth inhibition (%): -1
- compound: "O=[N+]([O-])/C(C(Cl)=C(Cl)Cl)=C1/OCCS1"
  growth inhibition (%): 97
- compound: "CC1(C)C(C=O)=CCC1CC(N)=O (stereo not given)"
  growth inhibition (%): 0
- compound: "CO[C@@]12[C@H](COC(N)=O)C3=C(C(=O)C(C)=C(N)C3=O)N1C[C@@H]1N[C@@H]12"
  growth inhibition (%): 55
- compound: "COc1ccc(/C=C2\\SC(=S)N(C=C3C(=O)NC(=S)NC3=O)C2=O)cc1OC"
  growth inhibition (%): 47
